test system: 186277-243-T-J2-PDC complex spheroid growth; test: Anticancer human tumor 186277-243-T-J2-PDC patient-derived colon adenocarcinoma cell line growth inhibition [AhR]; settings: second compound 1 µM; first compound 3.16 µM; active = viability on the fitted dose curve at most 10% of control; inactive = the rest;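 note: luminescent signal used as a stand-in for viable cell amount; spheroids exposed to compounds for seven days before the viability read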
Respond only with the outcome that fits, drawn from active, inactive

[
  {
    "COMPOUND": "Nc1ccn(C2OC(CO)C(O)C2(F)F)c(=O)n1 (stereo not drawn) + Cc1cncc(-c2nc(NCCc3c[nH]c4ccccc34)c3ncn(C(C)C)c3n2)c1",
    "ASSIGNED_CLASS": "active"
  },
  {
    "COMPOUND": "O=C(c1cc(Cc2n[nH]c(=O)c3ccccc23)ccc1F)N1CCN(C(=O)C2CC2)CC1 + CC(CO)NC(=O)c1cc(-c2ccc(Cl)cc2)nn(-c2cnn(C)c2)c1=O",
    "ASSIGNED_CLASS": "inactive"
  },
  {
    "COMPOUND": "COc1ccc([C@@H](O)c2cc(-c3ncnc4cc(N5CCOCC5)ccc34)c(F)cc2Cl)nn1 + CC(CO)NC(=O)c1cc(-c2ccc(Cl)cc2)nn(-c2cnn(C)c2)c1=O",
    "ASSIGNED_CLASS": "inactive"
  },
  {
    "COMPOUND": "O=C(C=Cc1cccc(S(=O)(=O)Nc2ccccc2)c1)NO + CC(CO)NC(=O)c1cc(-c2ccc(Cl)cc2)nn(-c2cnn(C)c2)c1=O",
    "ASSIGNED_CLASS": "active"
  }
]

Task: Recorded test call requested for Nc1ccn(C2OC(CO)C(O)C2(F)F)c(=O)n1 (stereo not drawn) + Cc1ccccc1N=Nc1ccc(NC(=O)c2ccnn2C)c(C)c1
Output: inactive

Task: Per the records of this test, what outcome belongs to COc1cc(Nc2ncc3c(n2)-c2ccc(Cl)cc2C(c2c(F)cccc2OC)=NC3)ccc1C(=O)O + Cc1cncc(-c2nc(NCCc3c[nH]c4ccccc34)c3ncn(C(C)C)c3n2)c1 ?
Output: inactive

Task: Hey, what did the test say about COc1cc(Nc2ncc3c(n2)-c2ccc(Cl)cc2C(c2c(F)cccc2OC)=NC3)ccc1C(=O)O + CC(CO)NC(=O)c1cc(-c2ccc(Cl)cc2)nn(-c2cnn(C)c2)c1=O ?
Output: inactive

Task: Record request — test call for COc1ccc([C@@H](O)c2cc(-c3ncnc4cc(N5CCOCC5)ccc34)c(F)cc2Cl)nn1 + Cc1cncc(-c2nc(NCCc3c[nH]c4ccccc34)c3ncn(C(C)C)c3n2)c1
Output: inactive

Task: Give the logged outcome of this assay for the following compound: O=C(C=Cc1cccc(S(=O)(=O)Nc2ccccc2)c1)NO + Cc1ccccc1N=Nc1ccc(NC(=O)c2ccnn2C)c(C)c1
Output: inactive

Task: What outcome does the record of this test show for CC(C)c1c(-c2ccccc2)nc2c(C#N)c[nH]n2c1=O + Cc1cncc(-c2nc(NCCc3c[nH]c4ccccc34)c3ncn(C(C)C)c3n2)c1 ?
Output: inactive

Task: What is the recorded call for this compound in the test? COc1cccc2c1C(=O)c1c(O)c3c(c(O)c1C2=O)CC(O)(C(=O)CO)CC3OC1CC(N)C(O)C(C)O1 (stereo not drawn) + Cc1cncc(-c2nc(NCCc3c[nH]c4ccccc34)c3ncn(C(C)C)c3n2)c1
Output: active

Task: Test call for this compound, please: O=C(C=Cc1cccc(S(=O)(=O)Nc2ccccc2)c1)NO + Cc1cncc(-c2nc(NCCc3c[nH]c4ccccc34)c3ncn(C(C)C)c3n2)c1
Output: active

Task: Assay result, entry Nc1ccccc1NC(=O)c1ccc(CNC(=O)OCc2cccnc2)cc1 + CC(CO)NC(=O)c1cc(-c2ccc(Cl)cc2)nn(-c2cnn(C)c2)c1=O — outcome?
Output: active

Task: Name the outcome recorded for CC1COCCN1c1cc(C2(S(C)(=N)=O)CC2)nc(-c2ccnc3[nH]ccc23)n1 (stereo not drawn) + Cc1ccccc1N=Nc1ccc(NC(=O)c2ccnn2C)c(C)c1 in the assay.
Output: inactive

Task: I'd appreciate the recorded outcome for O=C(c1cc(Cc2n[nH]c(=O)c3ccccc23)ccc1F)N1CCN(C(=O)C2CC2)CC1 + Cc1ccccc1N=Nc1ccc(NC(=O)c2ccnn2C)c(C)c1 from this test.
Output: inactive

Task: State the result this test recorded for Nc1ccccc1NC(=O)c1ccc(CNC(=O)OCc2cccnc2)cc1 + Cc1cncc(-c2nc(NCCc3c[nH]c4ccccc34)c3ncn(C(C)C)c3n2)c1 .
Output: inactive

Task: How did this test come out for COc1cc(C2c3cc4c(cc3C(OC3OC5COC(C)OC5C(O)C3O)C3COC(=O)C23)OCO4)cc(OC)c1O (stereo not drawn) + Cc1cncc(-c2nc(NCCc3c[nH]c4ccccc34)c3ncn(C(C)C)c3n2)c1 ?
Output: inactive

Task: I would be grateful if you could indicate the recorded call for CC1(C)CCC(CN2CCN(c3ccc(C(=O)NS(=O)(=O)c4ccc(NCC5CCOCC5)c([N+](=O)[O-])c4)c(Oc4cnc5[nH]ccc5c4)c3)CC2)=C(c2ccc(Cl)cc2)C1 + Cc1cncc(-c2nc(NCCc3c[nH]c4ccccc34)c3ncn(C(C)C)c3n2)c1 .
Output: inactive

Task: Please state the recorded outcome for this compound: NS(=O)(=O)OCC1CC(n2ccc3c(NC4CCc5ccccc54)ncnc32)CC1O (stereo not drawn) + Cc1ccccc1N=Nc1ccc(NC(=O)c2ccnn2C)c(C)c1
Output: inactive
